target: hSGLT1 (Homo sapiens, UniProt P13866); construct: FLAG; experiment: [14C]-AMG uptake assay in HEK293-hSGLT1 cells; settings: HEK293-hSGLT1 stable cell line
Sequence (P13866 whole entry): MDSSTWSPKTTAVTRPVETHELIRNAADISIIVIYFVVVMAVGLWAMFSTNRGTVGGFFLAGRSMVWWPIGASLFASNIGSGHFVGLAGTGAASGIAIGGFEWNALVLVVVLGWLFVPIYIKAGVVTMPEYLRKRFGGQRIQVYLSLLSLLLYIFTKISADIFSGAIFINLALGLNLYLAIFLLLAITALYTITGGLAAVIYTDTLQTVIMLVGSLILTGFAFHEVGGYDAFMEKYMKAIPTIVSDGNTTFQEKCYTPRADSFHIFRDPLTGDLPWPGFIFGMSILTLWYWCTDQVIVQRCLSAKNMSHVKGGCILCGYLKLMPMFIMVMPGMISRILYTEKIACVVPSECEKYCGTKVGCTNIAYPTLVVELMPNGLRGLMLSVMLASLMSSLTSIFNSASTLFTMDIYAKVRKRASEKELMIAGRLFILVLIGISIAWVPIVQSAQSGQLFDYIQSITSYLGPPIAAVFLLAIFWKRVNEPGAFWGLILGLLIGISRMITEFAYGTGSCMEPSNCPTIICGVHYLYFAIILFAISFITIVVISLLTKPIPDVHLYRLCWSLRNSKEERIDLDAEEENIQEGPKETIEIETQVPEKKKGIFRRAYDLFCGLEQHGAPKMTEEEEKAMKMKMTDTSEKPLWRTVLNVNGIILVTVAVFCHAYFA
A collection of compounds and their measured IC50
Answer with the figure and its unit, nothing else.

Some solved entries appear below for comparison.
OC[C@H]1O[C@@H](c2cc3c(c(Cc4ccc(-c5ccc(F)cc5)s4)c2)CCC3)[C@H](O)[C@@H](O)[C@@H]1O = 0.0849 µM
OC[C@H]1O[C@@H](c2cc3c(c(Cc4ccc(C5CC5)cc4)c2)CCC3)[C@H](O)[C@@H](O)[C@@H]1O = 0.0249 µM

Supply IC50 measured with hSGLT1 (Homo sapiens, UniProt P13866) for Cc1ccc(Cc2cc([C@@H]3O[C@H](CO)[C@@H](O)[C@H](O)[C@H]3O)cc3c2CCC3)cc1 .
0.0077 µM

* * *

target: hSGLT2 (Homo sapiens); construct: FLAG; assay: [14C]-AMG uptake assay in HEK293-hSGLT2 cells; details: HEK293-hSGLT2 stable cell line
Sequence (P31639 whole entry): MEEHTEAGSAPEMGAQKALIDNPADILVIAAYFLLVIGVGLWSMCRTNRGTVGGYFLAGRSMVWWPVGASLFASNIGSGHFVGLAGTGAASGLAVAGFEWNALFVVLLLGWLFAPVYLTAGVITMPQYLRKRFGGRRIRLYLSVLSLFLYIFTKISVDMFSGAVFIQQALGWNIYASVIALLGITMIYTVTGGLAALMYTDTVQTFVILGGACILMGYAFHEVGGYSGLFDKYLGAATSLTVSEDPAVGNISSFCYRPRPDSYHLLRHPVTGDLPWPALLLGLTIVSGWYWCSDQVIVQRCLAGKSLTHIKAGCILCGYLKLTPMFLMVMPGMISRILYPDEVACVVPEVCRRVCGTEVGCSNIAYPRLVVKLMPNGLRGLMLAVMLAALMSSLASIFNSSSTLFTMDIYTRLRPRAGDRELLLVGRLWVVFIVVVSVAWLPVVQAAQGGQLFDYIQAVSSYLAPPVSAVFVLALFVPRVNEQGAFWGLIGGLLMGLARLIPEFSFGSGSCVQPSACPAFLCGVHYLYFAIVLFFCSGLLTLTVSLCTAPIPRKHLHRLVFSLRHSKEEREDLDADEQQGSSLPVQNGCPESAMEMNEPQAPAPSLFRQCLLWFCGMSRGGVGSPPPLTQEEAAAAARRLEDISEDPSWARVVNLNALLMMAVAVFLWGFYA
Collected pIC50 values appear next to each entry.
Give only the number. pIC50 is defined as minus log10 of concentration in molar units.

Fill in: pIC50 on hSGLT2 (Homo sapiens), entry OC[C@H]1O[C@@H](c2cc3c(c(Cc4ccc(OC(F)(F)F)cc4)c2)CCC3)[C@H](O)[C@@H](O)[C@@H]1O
8.04

Fill: pIC50 (hSGLT2 (Homo sapiens)) for this molecule COc1ccc(Cc2cc([C@@H]3O[C@H](CO)[C@@H](O)[C@H](O)[C@H]3O)cc3c2CCC3)cc1
8.40

// fetch pIC50 for OC[C@H]1O[C@@H](c2cc3c(c(Cc4ccc(Cl)cc4)c2)CCC3)[C@H](O)[C@@H](O)[C@@H]1O ; system: hSGLT2 (Homo sapiens)
7.54

Please report the measured pIC50 for OC[C@H]1O[C@@H](c2cc3c(c(Cc4cc5ccccc5s4)c2)CCC3)[C@H](O)[C@@H](O)[C@@H]1O tested on hSGLT2 (Homo sapiens).
8.05

Provide measured pIC50 on hSGLT2 (Homo sapiens) for OC[C@H]1O[C@@H](c2cc3c(c(Cc4ccc(C(F)(F)F)cc4)c2)CCC3)[C@H](O)[C@@H](O)[C@@H]1O please.
8.17

Report measured pIC50 on hSGLT2 (Homo sapiens); entry: OC[C@H]1O[C@@H](c2cc3c(c(Cc4ccc(C5CC5)cc4)c2)CCC3)[C@H](O)[C@@H](O)[C@@H]1O
8.24

Enter pIC50 (test system hSGLT2 (Homo sapiens)) for Cc1ccc(Cc2cc([C@@H]3O[C@H](CO)[C@@H](O)[C@H](O)[C@H]3O)cc3c2CCC3)cc1C
8.35

Give pIC50 only, for Cc1ccc(Cc2cc([C@@H]3O[C@H](CO)[C@@H](O)[C@H](O)[C@H]3O)cc3c2CCC3)cc1 , using hSGLT2 (Homo sapiens) data.
8.02

Please respond with reported pIC50 (system hSGLT2 (Homo sapiens)) for OC[C@H]1O[C@@H](c2cc3c(c(Cc4ccc(-c5ccc(F)cc5)s4)c2)CCC3)[C@H](O)[C@@H](O)[C@@H]1O .
8.05

Would you please give the reported pIC50 of OC[C@H]1O[C@@H](c2cc3c(c(Cc4ccc5c(c4)OCO5)c2)CCC3)[C@H](O)[C@@H](O)[C@@H]1O with hSGLT2 (Homo sapiens)?
8.46

Return reported pIC50 for target or system hSGLT2 (Homo sapiens), item CC(C)(C)c1ccc(Cc2cc([C@@H]3O[C@H](CO)[C@@H](O)[C@H](O)[C@H]3O)cc3c2CCC3)cc1 .
8.24

Report the value of pIC50 obtained on hSGLT2 (Homo sapiens) for OC[C@H]1O[C@@H](c2cc3c(c(Cc4ccc(OCC(F)(F)F)cc4)c2)CCC3)[C@H](O)[C@@H](O)[C@@H]1O .
7.87

// fetch pIC50; item: OC[C@H]1O[C@@H](c2cc3c(c(Cc4ccc5c(c4)OCCO5)c2)CCC3)[C@H](O)[C@@H](O)[C@@H]1O ; system: hSGLT2 (Homo sapiens)
8.46

For hSGLT2 (Homo sapiens), give pIC50 of the listed molecule: CCc1ccc(Cc2cc([C@@H]3O[C@H](CO)[C@@H](O)[C@H](O)[C@H]3O)cc3c2CCC3)cc1
8.25
